Value source: patent US7750155B2

system: human histone deacetylase partially purified from human T cell leukemia Jurkat cells; construct: The human histone deacetylase was partially purified from human T cell leukemia Jurkat cells; assay: Test 1: Determination of histone deacetylase inhibitor activity ([3H]acetyl histone deacetylation); format: biochemical; details: partially purified human HDAC from Jurkat cells, [3H]acetyl histone substrate, 25° C., 30 minutes; read-out: Test 1: HDAC inhibitory activity IC50
Counter-ions that a name gives are not always drawn.
Parameter: pIC50
Just so you know, pIC50 here is -log10 of the concentration in molar units; reply with that number alone.

# pIC50 (compound: O=C(/C=C/c1cnc(N[C@@H]2CCN(CC3(CO)CCCCC3)C2)cn1)NO [Example 13, dihydrochloride] ) is 8.72

# pIC50 (compound: COc1ccc(F)cc1CN1CC[C@@H](Nc2cnc(/C=C/C(=O)NO)cn2)C1 [Example 15, dihydrochloride] ) is 8.36

# pIC50 (compound: O=C(/C=C/c1cnc(N[C@@H]2CCCN(CCc3ccc(Cl)cc3)C2)cn1)NO [Example 27, dihydrochloride] ) is 9.04

# pIC50 (compound: O=C(/C=C/c1cnc(N[C@@H]2CCN(CCc3cccs3)C2)cn1)NO [Example 4, dihydrochloride] ) is 8.44

====

test system: blood corpuscles (platelet, white blood corpuscle); assay: Test 4: Measurement of change rate of blood corpuscles; assay type: in vivo; conditions: 4 mg/kg oral once a day for 14 days, male LEW rats, blood 24 hr after last administration
Returns: string. Value is met if measured decrease rate (%) white blood corpuscle is below 40%, and not met if it is greater than or equal to it.

Prompt line: Lab log: compare recorded decrease rate (%) white blood corpuscle with 40%; is it strictly lower for "Cl.Cl.O=C(/C=C/c1cnc(N[C@@H]2CCN(CCc3ccc(Cl)cc3)C2)cn1)NO" ?
Response line: not met

Prompt line: Lab log: compare recorded decrease rate (%) white blood corpuscle with 40%; is it strictly lower for "COc1ccc(CCN2CC[C@@H](Nc3cnc(/C=C/C(=O)NO)cn3)C2)cc1.Cl.Cl" ?
Response line: met

Prompt line: Lab log: compare recorded decrease rate (%) white blood corpuscle with 40%; is it strictly lower for "Cl.Cl.O=C(/C=C/c1cnc(N[C@@H]2CCN(CCc3cccc(F)c3)C2)cn1)NO" ?
Response line: not met

Prompt line: Lab log: compare recorded decrease rate (%) white blood corpuscle with 40%; is it strictly lower for "Cl.Cl.O=C(/C=C/c1cnc(N[C@@H]2CCN(CCc3ccc(Br)cc3)C2)cn1)NO" ?
Response line: met

Prompt line: Lab log: compare recorded decrease rate (%) white blood corpuscle with 40%; is it strictly lower for "Cl.Cl.O=C(/C=C/c1cnc(N[C@@H]2CCCN(CCc3cccc(F)c3)C2)cn1)NO" ?
Response line: not met

Prompt line: Lab log: compare recorded decrease rate (%) white blood corpuscle with 40%; is it strictly lower for "Cl.Cl.O=C(/C=C/c1cnc(N[C@@H]2CCCN(CCC3CCCCC3)C2)cn1)NO" ?
Response line: not met

====

tested on: blood corpuscles (platelet, white blood corpuscle); test: Test 4: Measurement of change rate of blood corpuscles; type: in vivo; conditions: 4 mg/kg oral once a day for 14 days, male LEW rats, blood 24 hr after last administration
I'd appreciate it if you could supply decrease rate (%) platelet values for the items below.
Please give a number only; it is taken to be in %.

# decrease rate (%) platelet (compound: "Cl.Cl.O=C(/C=C/c1cnc(N[C@@H]2CCN(CCc3ccc(Br)cc3)C2)cn1)NO" ) is 14.2

# decrease rate (%) platelet (compound: "Cl.Cl.O=C(/C=C/c1cnc(N[C@@H]2CCN(CCc3ccc(Cl)cc3)C2)cn1)NO" ) is 18.6

# decrease rate (%) platelet (compound: "COc1ccc(CCN2CC[C@@H](Nc3cnc(/C=C/C(=O)NO)cn3)C2)cc1.Cl.Cl" ) is 3.4

# decrease rate (%) platelet (compound: "Cl.Cl.O=C(/C=C/c1cnc(N[C@@H]2CCCN(CCc3cccc(F)c3)C2)cn1)NO" ) is 24.3

# decrease rate (%) platelet (compound: "Cl.Cl.O=C(/C=C/c1cnc(N[C@@H]2CCN(CCc3ccc(F)c(F)c3)C2)cn1)NO" ) is 9.4

# decrease rate (%) platelet (compound: "Cl.Cl.O=C(/C=C/c1cnc(N[C@@H]2CCN(CCc3cccc(F)c3)C2)cn1)NO" ) is 18.3

# decrease rate (%) platelet (compound: "Cl.Cl.O=C(/C=C/c1cnc(N[C@@H]2CCCN(CCC3CCCCC3)C2)cn1)NO" ) is 6.2

====

I'd appreciate it if you could supply pIC50 values for the items below.
tested on: human histone deacetylase partially purified from human T cell leukemia Jurkat cells; construct: The human histone deacetylase was partially purified from human T cell leukemia Jurkat cells; experiment: Test 1: Determination of histone deacetylase inhibitor activity ([3H]acetyl histone deacetylation); assay type: biochemical; conditions: partially purified human HDAC from Jurkat cells, [3H]acetyl histone substrate, 25° C., 30 minutes; read-out: Test 1: HDAC inhibitory activity IC50
Counter-ions that a name gives are not always drawn.
Just so you know, pIC50 here is -log10 of the concentration in molar units; reply with that number alone.

# pIC50 measured on human histone deacetylase partially purified from human T cell leukemia Jurkat cells for item O=C(/C=C/c1cnc(N[C@@H]2CCCN(CCCc3ccccc3)C2)cn1)NO [Example 17, dihydrochloride] = 8.48

# pIC50 measured on human histone deacetylase partially purified from human T cell leukemia Jurkat cells for item Cl.Cl.O=C(/C=C/c1cnc(N[C@@H]2CCCN(CCc3cccc(F)c3)C2)cn1)NO [Example 6, dihydrochloride] = 8.77

# pIC50 measured on human histone deacetylase partially purified from human T cell leukemia Jurkat cells for item Cl.Cl.O=C(/C=C/c1cnc(N[C@@H]2CCN(CCc3ccc(Cl)cc3)C2)cn1)NO [Example 23, dihydrochloride] = 8.70

# pIC50 measured on human histone deacetylase partially purified from human T cell leukemia Jurkat cells for item O=C(/C=C/c1cnc(N[C@@H]2CCCN(CCc3ccc(F)cc3F)C2)cn1)NO [Example 8, dihydrochloride] = 8.77

====

I'd appreciate it if you could supply IC50 values for the items below.
tested on: human histone deacetylase partially purified from human T cell leukemia Jurkat cells; construct: The human histone deacetylase was partially purified from human T cell leukemia Jurkat cells; assay: Test 1: Determination of histone deacetylase inhibitor activity ([3H]acetyl histone deacetylation); format: biochemical; settings: partially purified human HDAC from Jurkat cells, [3H]acetyl histone substrate, 25° C., 30 minutes; read-out: Test 1: HDAC inhibitory activity IC50
Where a name gives a salt, the structure may show the parent alone.
Please give a number only; it is taken to be in nM.

# IC50 (compound: CN(C)c1ccccc1CN1CC[C@@H](Nc2cnc(/C=C/C(=O)NO)cn2)C1 [Example 10, trihydrochloride] ) is 3

# IC50 (compound: O=C(/C=C/c1cnc(N[C@@H]2CCCN(CCC3CCCC3)C2)cn1)NO [Example 24, dihydrochloride] ) is 0.81

# IC50 (compound: O=C(/C=C/c1cnc(N[C@@H]2CCN(CC3CCCC3)C2)cn1)NO [Example 12, dihydrochloride] ) is 0.59

# IC50 (compound: O=C(/C=C/c1cnc(N[C@@H]2CCN(CCc3c(F)cccc3F)C2)cn1)NO [Example 3, dihydrochloride] ) is 2.7

# IC50 (compound: O=C(/C=C/c1cnc(N[C@@H]2CCN(CCc3ccccc3Cl)C2)cn1)NO [Example 22, dihydrochloride] ) is 0.87

# IC50 (compound: Cl.Cl.O=C(/C=C/c1cnc(N[C@@H]2CCN(CCc3cccc(F)c3)C2)cn1)NO [Example 1, dihydrochloride] ) is 2.3

# IC50 (compound: O=C(/C=C/c1cnc(N[C@@H]2CCN(CCC3CCCC3)C2)cn1)NO [Example 20, dihydrochloride] ) is 0.79

====

test system: human histone deacetylase partially purified from human T cell leukemia Jurkat cells; construct: The human histone deacetylase was partially purified from human T cell leukemia Jurkat cells; test: Test 1: Determination of histone deacetylase inhibitor activity ([3H]acetyl histone deacetylation); type: biochemical; settings: partially purified human HDAC from Jurkat cells, [3H]acetyl histone substrate, 25° C., 30 minutes; read-out: Test 1: HDAC inhibitory activity IC50
Counter-ions that a name gives are not always drawn.
Parameter: pIC50
Just so you know, pIC50 here is -log10 of the concentration in molar units; reply with that number alone.

# pIC50 measured on human histone deacetylase partially purified from human T cell leukemia Jurkat cells for item O=C(/C=C/c1cnc(N[C@@H]2CCCN(CCc3ccccc3Cl)C2)cn1)NO [Example 26, dihydrochloride] = 8.85

# pIC50 measured on human histone deacetylase partially purified from human T cell leukemia Jurkat cells for item O=C(/C=C/c1cnc(N[C@@H]2CCN(CCc3ccc(F)cc3F)C2)cn1)NO [Example 2, dihydrochloride] = 8.82

# pIC50 measured on human histone deacetylase partially purified from human T cell leukemia Jurkat cells for item COc1ccc(CCN2CC[C@@H](Nc3cnc(/C=C/C(=O)NO)cn3)C2)cc1.Cl.Cl [Example 18, dihydrochloride] = 8.66

# pIC50 measured on human histone deacetylase partially purified from human T cell leukemia Jurkat cells for item O=C(/C=C/c1cnc(N[C@@H]2CCN(Cc3cccc4ccccc34)C2)cn1)NO [Example 16, dihydrochloride] = 8.18

# pIC50 measured on human histone deacetylase partially purified from human T cell leukemia Jurkat cells for item O=C(/C=C/c1cnc(N[C@@H]2CCN(CCC3CCCCC3)C2)cn1)NO [Example 21, dihydrochloride] = 9.01

# pIC50 measured on human histone deacetylase partially purified from human T cell leukemia Jurkat cells for item CC(C)(CN1CC[C@@H](Nc2cnc(/C=C/C(=O)NO)cn2)C1)c1ccccc1 [Example 28, dihydrochloride] = 8.38

# pIC50 measured on human histone deacetylase partially purified from human T cell leukemia Jurkat cells for item Cl.Cl.O=C(/C=C/c1cnc(N[C@@H]2CCN(CCc3ccc(F)c(F)c3)C2)cn1)NO [Example 5, dihydrochloride] = 8.48

# pIC50 measured on human histone deacetylase partially purified from human T cell leukemia Jurkat cells for item Cl.Cl.O=C(/C=C/c1cnc(N[C@@H]2CCCN(CCC3CCCCC3)C2)cn1)NO [Example 25, dihydrochloride] = 8.74

# pIC50 measured on human histone deacetylase partially purified from human T cell leukemia Jurkat cells for item O=C(/C=C/c1cnc(N[C@@H]2CCN(CCCC3CCCCC3)C2)cn1)NO [Example 29, dihydrochloride] = 8.19

# pIC50 measured on human histone deacetylase partially purified from human T cell leukemia Jurkat cells for item O=C(/C=C/c1cnc(N[C@@H]2CCCN(CCc3ccccc3F)C2)cn1)NO [Example 7, dihydrochloride] = 8.82

# pIC50 measured on human histone deacetylase partially purified from human T cell leukemia Jurkat cells for item O=C(/C=C/c1cnc(N[C@@H]2CCCN(CCc3ccc(F)c(F)c3)C2)cn1)NO [Example 9, dihydrochloride] = 9.00

# pIC50 measured on human histone deacetylase partially purified from human T cell leukemia Jurkat cells for item Cl.Cl.O=C(/C=C/c1cnc(N[C@@H]2CCN(CCc3ccc(Br)cc3)C2)cn1)NO [Example 19, dihydrochloride] = 8.80

# pIC50 measured on human histone deacetylase partially purified from human T cell leukemia Jurkat cells for item COc1cc(CN2CC[C@@H](Nc3cnc(/C=C/C(=O)NO)cn3)C2)ccc1F [Example 11, dihydrochloride] = 9.02

# pIC50 measured on human histone deacetylase partially purified from human T cell leukemia Jurkat cells for item O=C(/C=C/c1cnc(N[C@@H]2CCN(CC34CCC(CC3)O4)C2)cn1)NO [Example 14, dihydrochloride] = 8.42
